measurement-target: T1, cynomolgus soluble ULBP2/6 (cULBP2/6) (cynomolgus, UniProt Q5VY80 28-217 (human entry), limits assumed)
T1 construct: also called cyno ULBP6; Cyno-cULBP2/6
T1 chain: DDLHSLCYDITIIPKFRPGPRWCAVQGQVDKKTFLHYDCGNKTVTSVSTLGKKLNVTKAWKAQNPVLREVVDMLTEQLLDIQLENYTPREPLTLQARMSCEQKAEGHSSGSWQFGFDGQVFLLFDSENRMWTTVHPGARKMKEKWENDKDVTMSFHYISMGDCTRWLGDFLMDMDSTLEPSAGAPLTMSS
assay-notes: SPR (BIACORE);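 note: soluble human and cynomolgus NKG2D ligands injected as analytes in 3-fold dilution series spanning 0.01 to 50 nM at 37 °C, reference-subtracted sensorgrams fitted to a 1:1 Langmuir model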
measurement-type: Kd (nM)
Answer with a number only, understood to be in nM.

binder	measurement-type	numeric-value
Humanized 7B3 (h7B3) (E-) (antibody, human IgG1, kappa, N297G, V domains shown, hIgG1 with N297G (effector negative)) VH: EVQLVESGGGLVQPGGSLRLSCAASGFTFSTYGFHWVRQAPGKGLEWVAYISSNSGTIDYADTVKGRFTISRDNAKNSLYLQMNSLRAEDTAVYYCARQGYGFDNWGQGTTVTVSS VL: DIQLTQSPSSLSASVGDRVTITCSASSRVSYMNWYQQKPGKSPKIWVYGISNLASGVPSRFSGSGSGTDFTFTISSLQPEDIATYYCQQRSSHPLTFGGGTKVEIKR	Kd	0.48
Humanized 1D4 (h1D4) (E-) (antibody, human IgG1, kappa, N297G, V domains shown, hIgG1 with N297G (effector negative)) VH: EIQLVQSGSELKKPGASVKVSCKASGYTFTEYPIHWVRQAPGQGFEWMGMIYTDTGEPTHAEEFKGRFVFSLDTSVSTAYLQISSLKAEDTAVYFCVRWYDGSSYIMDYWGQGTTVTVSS VL: DIQMTQSPSSLSASVGDRVTITCKASQDINSYLSWFQQKPGKSPKTLIYRANRLVDGVPSRFSGSGSGQDYTFTISSLQPEDIATYYCLQYDEFPLTFGGGTKVEIKR	Kd	0.99
Humanized 8E11 (h8E11) (E-) (antibody, human IgG1, kappa, N297G, V domains shown, hIgG1 with N297G (effector negative)) VH: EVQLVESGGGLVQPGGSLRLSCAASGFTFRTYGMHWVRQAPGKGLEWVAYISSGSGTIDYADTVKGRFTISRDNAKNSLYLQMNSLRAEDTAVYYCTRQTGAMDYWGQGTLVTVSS VL: EIVLTQSPATLSLSPGERATLSCSASSSVSYMNWYQQKPGQSPRLWIYGISNLASGVPARFSGSGSGTDFTLTISSLEPEDFAVYYCQQRSSHPLTFGGGTKVEIKR	Kd	2.06

Could you tell me which Kd is on file for Humanized 6E1 (h6E1) (E-) (antibody, human IgG1, kappa, N297G, V domains shown, hIgG1 with N297G (effector negative)) VH: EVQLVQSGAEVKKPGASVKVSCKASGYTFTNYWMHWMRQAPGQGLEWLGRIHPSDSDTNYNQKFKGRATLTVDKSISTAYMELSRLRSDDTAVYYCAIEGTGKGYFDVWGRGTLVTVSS VL: DIQMTQSPSSLSASVGDRVTITCKASQDIYSYLSWFQQKPGKSPKTLIYRANRLVDGVPSRFSGSGSGQDFTLTISSLQPEDFATYYCLHYDEFPLTFGGGTKVEIKR ?
1.76
